Where do the numbers come from? From patent US11214803B2.

System: Yap1 mRNA
assay_protocol: Antisense inhibition of human Yap1 in A-431 cells by cEt gapmers, single dose (Example 3, RTS36584)
Type: cell-based
recorded_conditions: Table 10; A-431 cells, 5,000 cells per well, free uptake, 2,000 nM oligonucleotide, approx. 48 hours; primer probe set RTS36584; Yap1 mRNA normalized to RIBOGREEN, percent of untreated control
Strand notation (5' to 3'): a small letter for the sugar, then the base; units joined by * are phosphorothioate-linked, units joined directly phosphodiester-linked; [ ] holds rarer units or linkages, { } end groups; capitals alone tell only the bases. k = constrained ethyl (cEt); [5mC] = 5-methylcytosine; d = 2'-deoxy (DNA)
Can you tell me YAP1 (% UTC) for the items I'm about to list?
One number for each entry, in % UTC.

Give YAP1 (% UTC) for each listed item.
1. 958617 (antisense kG*kA*kG*dG*dT*dG*dG*dT*d[5mC]*dT*dT*dG*dT*kT*k[5mC]*kT) [Compound 958617]
2. 958687 (antisense kA*k[5mC]*kA*d[5mC]*dT*dA*dT*dG*dT*dG*dT*dT*d[5mC]*kT*kG*k[5mC]) [Compound 958687]
3. 958577 (kT*k[5mC]*kT*dG*dT*dG*dG*d[5mC]*dT*dA*d[5mC]*dT*dG*kG*k[5mC]*kA; antisense) [Compound 958577]

Completion:
1. 40
2. 57
3. 4
